Values compiled from ChEMBL document CHEMBL2331255.

Biological target: Carbonic anhydrase 9 (Homo sapiens)
RECORDED METRIC: Ki (nM)

Previously resolved entries follow.
STRUCTURE NOTATION	ENDPOINT UNIT	Ki
N#C/C(=C\c1ccccc1Cl)C(=O)Nc1ccc(S(N)(=O)=O)cc1	nM	8.9
COc1ccccc1/C=C(\C#N)C(=O)Nc1ccc(S(N)(=O)=O)cc1	nM	32.6
N#C/C(=C\c1ccc(Cl)cc1Cl)C(=O)Nc1ccc(S(N)(=O)=O)cc1	nM	35.6
N#C/C(C(=O)Nc1ccc(S(N)(=O)=O)cc1)=C(\S)Nc1ccccc1	nM	5.8
N#C/C(=C\c1ccc([N+](=O)[O-])cc1)C(=O)Nc1ccc(S(N)(=O)=O)cc1	nM	0.93

P. COc1cc(/C=C(\C#N)C(=O)Nc2ccc(S(N)(=O)=O)cc2)ccc1O
Q. N#C/C(=N\Nc1ccccc1)C(=O)Nc1ccc(S(N)(=O)=O)cc1
Qu. I'd appreciate it if you could identify which of P and Q has the greater Ki. Reply with the label of the item you choose.
Ans. Q

A. COc1ccc(/C=C(\C#N)C(=O)Nc2ccc(S(N)(=O)=O)cc2)cc1OC
B. N#C/C(=C\c1ccc(O)cc1)C(=O)Nc1ccc(S(N)(=O)=O)cc1
Qu. I'd appreciate it if you could identify which of A and B has the greater Ki. Reply with the label of the item you choose.
Ans. A
(A: 21.2 nM, B: 0.67 nM)
